Cited source: ChEMBL document CHEMBL1961873

molecular target: Casein kinase II subunit alpha (Homo sapiens) (UniProt P68400); details: at 1 µM;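 note: reported value is the mean CK2 inhibition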
Sequence (P68400 whole entry, looked up): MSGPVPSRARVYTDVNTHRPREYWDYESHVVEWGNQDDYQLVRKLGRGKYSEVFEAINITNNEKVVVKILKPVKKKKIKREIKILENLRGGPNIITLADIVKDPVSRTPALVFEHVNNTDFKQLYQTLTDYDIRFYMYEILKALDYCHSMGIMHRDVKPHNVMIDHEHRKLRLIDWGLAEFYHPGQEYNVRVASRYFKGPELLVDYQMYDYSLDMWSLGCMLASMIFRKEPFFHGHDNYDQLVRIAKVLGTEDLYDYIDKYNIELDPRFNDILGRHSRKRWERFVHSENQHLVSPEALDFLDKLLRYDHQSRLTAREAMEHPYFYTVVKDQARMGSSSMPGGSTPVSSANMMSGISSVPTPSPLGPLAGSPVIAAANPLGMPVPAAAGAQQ
parameter-measured: inhibition (%)
One number for each entry, in %.

The following compounds have reported results that may help.
COC(=O)Nc1nc2ccc(S(=O)(=O)c3ccc(NC(=O)Nc4cc(C(F)(F)F)ccc4F)cc3)cc2[nH]1    -2.21
CC1=C(C(=O)Nc2cc(Cl)c3[nH]ncc3c2)C(c2ccc(C(F)(F)F)cc2)CC(=O)N1 (configuration not stated)    1.13
Nc1ncc(-c2cccc(S(N)(=O)=O)c2)c2scc(-c3ccc(F)c(Cl)c3)c12    3.4
O=C(O[C@H]1CN[C@H](C#Cc2cc3ncnc(Nc4ccc(Cc5ccccc5)cc4)c3s2)C1)N1CCOCC1    1.52
CC(C)(CO)CNC(=O)c1ccc2c(c1)/C(=N/Nc1ccc(S(N)(=O)=O)cc1)C(=O)N2    23.5

List inhibition for every entry below, keeping the order given.
1. CS(=O)(=O)CCNCc1coc(-c2ccc3ncnc(Nc4ccc(OCc5ccccc5)cc4)c3c2)c1
2. Cc1cccc(Nc2ncc(-c3ccccc3)o2)c1
3. Fc1ccc(-c2nn3ccccc3c2-c2ccncc2)cc1
4. NC(=O)c1sc(-n2cnc3ccc(C(F)(F)F)cc32)cc1OCc1ccccc1Br

1: 6.53; 2: 3.49; 3: 0.13; 4: 5.66

I need inhibition for every entry listed below, if you could help.
1. c1ccc(-c2nc3n(c2-c2ccc4c(c2)OCO4)CCC3)nc1
2. O=C(Nc1n[nH]c2cc(-c3ccc(F)cc3)ccc12)C1CC1
3. CCN(CC)S(=O)(=O)c1ccc(OC)c(Nc2ncc(-c3ccccc3)o2)c1
4. CCNC(=O)O[C@H]1CN[C@H](C#Cc2cc3ncnc(Nc4ccc(OCc5cccc(F)c5)c(Cl)c4)c3s2)C1
5. Fc1ccc(-c2cc(-c3c[nH]nc3-c3ccccn3)ccn2)cc1
6. NS(=O)(=O)c1ccc(N/N=C2\C(=O)Nc3ccc4ncccc4c32)cc1
7. COC(=O)c1sc(-n2cnc3cc(OC)c(OC)cc32)cc1OCc1ccccc1C(F)(F)F

1. 1.12
2. 0.79
3. 15.1
4. -1.06
5. 11.9
6. 32.2
7. -0.18

Which inhibition reading was recorded for the compound `Fc1cccc(COc2ccc(Nc3ncnc4sc(-c5ccco5)cc34)cc2Cl)c1` ?
3.13

###

target: Serine/threonine-protein kinase SIK2 (Homo sapiens) (UniProt Q9H0K1); settings: at 0.1 µM
Sequence (Q9H0K1 whole entry, looked up): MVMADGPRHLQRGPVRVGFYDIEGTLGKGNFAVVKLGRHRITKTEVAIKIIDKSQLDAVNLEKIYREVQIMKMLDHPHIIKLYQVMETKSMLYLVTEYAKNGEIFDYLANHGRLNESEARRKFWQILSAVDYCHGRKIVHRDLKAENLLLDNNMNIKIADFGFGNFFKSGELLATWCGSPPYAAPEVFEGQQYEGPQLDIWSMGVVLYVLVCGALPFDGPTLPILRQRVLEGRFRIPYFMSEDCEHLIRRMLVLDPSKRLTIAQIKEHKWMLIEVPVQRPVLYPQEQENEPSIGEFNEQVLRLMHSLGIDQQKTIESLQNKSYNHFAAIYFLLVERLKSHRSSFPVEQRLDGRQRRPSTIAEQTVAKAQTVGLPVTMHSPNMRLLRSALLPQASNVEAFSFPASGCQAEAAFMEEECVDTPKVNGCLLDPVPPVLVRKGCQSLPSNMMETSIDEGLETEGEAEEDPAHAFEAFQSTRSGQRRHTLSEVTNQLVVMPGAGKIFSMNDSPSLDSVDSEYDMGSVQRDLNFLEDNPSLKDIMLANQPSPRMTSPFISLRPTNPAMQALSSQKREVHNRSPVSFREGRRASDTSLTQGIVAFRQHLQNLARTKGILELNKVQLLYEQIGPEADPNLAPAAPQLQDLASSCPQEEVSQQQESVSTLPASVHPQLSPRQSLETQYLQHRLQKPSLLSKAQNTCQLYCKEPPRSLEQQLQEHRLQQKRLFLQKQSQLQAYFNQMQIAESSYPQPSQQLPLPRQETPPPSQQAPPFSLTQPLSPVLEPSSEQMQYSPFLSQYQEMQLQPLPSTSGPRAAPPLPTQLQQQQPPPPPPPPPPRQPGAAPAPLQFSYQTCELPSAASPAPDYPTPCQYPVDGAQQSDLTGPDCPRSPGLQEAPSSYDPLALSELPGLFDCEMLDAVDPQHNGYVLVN
Description: GSK_PKIS: SNF1LK2 (QIK) mean inhibition at 0.1 uM [Nanosyn]
parameter-measured: inhibition (%)
One number for each entry, in %.

# annotated cases, reported inhibition shown
FC(F)(F)c1cccc(-c2nn3ncccc3c2-c2ccnc(Nc3ccc4c(c3)OCCO4)n2)c1    3.42
COc1cc(Nc2nccc(Nc3ccc4c(C)n[nH]c4c3)n2)cc(OC)c1OC    4.45
CNC(=O)c1cccc(C#Cc2cncnc2Nc2ccc(OCc3cccc(F)c3)c(Cl)c2)c1    -1.57
CNC(=O)c1cc(-c2ccc(F)cc2)cc(-c2ccc(S(=O)(=O)N3CCCC3)cc2)c1N    3.18
COc1cc2ncn(-c3cc(OCc4ccccc4C(F)(F)F)c(C(=O)N(C)C)s3)c2cc1OC    4.39

Look up inhibition for the entries below, preserving their order.
1. c1ccc(COc2ccc(Nc3ncnc4ccc(-c5ccco5)cc34)cc2)cc1
2. NS(=O)(=O)c1ccc(N/N=C2\C(=O)Nc3ccc4ncccc4c32)cc1

1. -3.82
2. -0.54

Could you report inhibition for every entry in the following list?
1. CS(=O)(=O)CCNCc1ccc(-c2ccc3ncnc(Nc4ccc(OCc5ccccc5)c(C(F)(F)F)c4)c3c2)o1
2. Cc1cccc2c1NC(=O)/C2=N\Nc1ccc(S(N)(=O)=O)cc1
3. COc1ccc(-c2nn3ncccc3c2-c2ccnc(Nc3ccc4c(c3)OCCO4)n2)cc1

[4.8, 7.86, -0.55]

Required: inhibition, one value per compound below.
1. CCn1c(-c2nonc2N)nc2c(C#CC(C)(C)O)ncc(OC3CCNCC3)c21
2. Nc1ncc(-c2cccc(S(N)(=O)=O)c2)c2scc(-c3ccc(F)c(Cl)c3)c12

1: 3.69; 2: 9.17

Lab note: each compound below needs its inhibition filled in.
1. c1cc(-c2cnn3nc(N4CCOCC4)ccc23)nc(NC2CC2)n1
2. COc1cccc(-n2ncc3c(N/N=C/c4ccc(F)cc4)ncnc32)c1
3. Cc1ccc2c(-c3ccnc(Nc4ccccc4)n3)c(-c3ccc(F)cc3)nn2n1
4. COc1ccc(-c2cc3c(N)ncnc3o2)cc1
5. COC(=O)Nc1nc2ccc(Oc3ccc(NC(=O)Nc4cccc(Cl)c4)cc3)cc2[nH]1

[6.34, 6.43, 13.3, 5.43, 0.4]
